Each recorded value in this set is attributed to paper PMC5540273.

Test system: CDK5
TEST CONTEXT: concentration: 1 μM, replicates: in singlicate; n = 1;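 further: KINOMEscan kinase panel screen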
Could you please report measured %Inh for the items listed next?
Report the value in % with no unit label.

input: Entry `Cn1ccc2ncnc(Oc3ccc(Nc4nc5ccccc5[nH]4)cc3)c21` needs its %Inh filled in; supply it.
output: 0

input: Entry `CC(=O)Nc1nc2cnc(Nc3cc(NC(=O)c4cccc(CCC#N)c4)ccc3C)nc2s1` needs its %Inh filled in; supply it.
output: 12

input: Entry `CS(=O)(=O)c1ccc(-c2c(-c3ncn[nH]3)sc(N3CCOCC3)c2C#N)cc1` needs its %Inh filled in; supply it.
output: 38

input: Entry `Clc1cc(Cl)cc(Nc2ccnc(Nc3cc(Cl)cc(Cl)c3)n2)c1` needs its %Inh filled in; supply it.
output: 0

input: Entry `CCn1c(-c2cccnc2O)nc2cnccc21` needs its %Inh filled in; supply it.
output: 0

input: Entry `C[C@@H]1CCCCN1c1cc(-c2ccc3c(N)n[nH]c3c2)nc(N)n1` needs its %Inh filled in; supply it.
output: 0

input: Entry `Cl.c1ccc(-c2n[nH]cc2-c2ccnc(-c3ccc(CN4CCOCC4)cc3)c2)nc1` needs its %Inh filled in; supply it.
output: 12

input: Entry `Nc1ncnc2[nH]c(-c3ccccc3)nc12` needs its %Inh filled in; supply it.
output: 0

input: Entry `Fc1cc(Cl)ccc1Nc1ccnc2cc(I)ccc12` needs its %Inh filled in; supply it.
output: 0

input: Entry `O=C(O)COc1ncnc2cc(-c3ccc4[nH]ncc4c3)sc12` needs its %Inh filled in; supply it.
output: 45

====

System: AURKB
TEST CONTEXT: concentration: 1 μM, replicates: in singlicate; n = 1
Response field label: string, one of met (%Inh strictly below 30%) or not met.

input: Please indicate whether the reported %Inh of `Cn1ccc2ncnc(Oc3cccc(C(=O)Nc4ccccc4)c3)c21` is strictly below 30%.
output: met

input: Please indicate whether the reported %Inh of `Cl.NC(=O)c1cccc(Nc2nccc(Nc3ccc(Oc4cccc(Cl)c4)c(Cl)c3)n2)c1` is strictly below 30%.
output: not met

input: Please indicate whether the reported %Inh of `Cc1ccc(NC(=O)Nc2cc(C(C)(C)C)nn2-c2ccccc2)cc1` is strictly below 30%.
output: met

input: Please indicate whether the reported %Inh of `Cc1cccc(-c2nc(C)cc(Nc3ccncc3)n2)n1` is strictly below 30%.
output: met

input: Please indicate whether the reported %Inh of `O=C(Nc1n[nH]c2cc(-c3cccc(F)c3F)ccc12)C1CC1` is strictly below 30%.
output: met

input: Please indicate whether the reported %Inh of `Cc1cccc(-c2nc(-c3ccc(S(C)(=O)=O)cc3)sc2-c2ccnc(NCCc3ccccc3)c2)c1` is strictly below 30%.
output: met

input: Please indicate whether the reported %Inh of `Fc1cccc(COc2nnc(-c3ccc4c(c3)CCO4)o2)c1` is strictly below 30%.
output: not met

input: Please indicate whether the reported %Inh of `Cc1cccc(-c2cc(Nc3ccncc3)c3ccccc3n2)n1` is strictly below 30%.
output: met

input: Please indicate whether the reported %Inh of `COC(=O)c1c(-c2ccccc2)c2cc(C(=O)O)ccc2c(=O)n1Cc1ccccc1` is strictly below 30%.
output: met

input: Please indicate whether the reported %Inh of `Cc1c(O)cccc1Nc1ccnc2ccc(C(F)(F)F)cc12.Cl` is strictly below 30%.
output: not met

input: Please indicate whether the reported %Inh of `CC(C)(C)c1ccc(C(=O)Nc2cn3cc(Cl)ccc3n2)cc1` is strictly below 30%.
output: not met

input: Please indicate whether the reported %Inh of `Cn1ccc2ncnc(Oc3ccc(NC(=O)Nc4ccccc4)cc3)c21` is strictly below 30%.
output: not met

input: Please indicate whether the reported %Inh of `O=C(Nc1n[nH]c2nc(-c3nccs3)c(Br)cc12)C1CC1` is strictly below 30%.
output: not met

input: Please indicate whether the reported %Inh of `Fc1cc(Cl)ccc1Nc1ccnc2cc(-c3ccc(CN4CCCCC4)o3)ccc12` is strictly below 30%.
output: met

input: Please indicate whether the reported %Inh of `Fc1cc(Cl)ccc1Nc1ccnc2cc(I)ccc12` is strictly below 30%.
output: met

input: Please indicate whether the reported %Inh of `Cc1csc(-c2nc(Nc3ccncc3)c3ccccc3n2)n1` is strictly below 30%.
output: not met

input: Please indicate whether the reported %Inh of `COc1cc2nccc(Nc3ccc(NC(=O)c4ccc(C)cc4)c(O)c3)c2cc1OC.Cl` is strictly below 30%.
output: not met

input: Please indicate whether the reported %Inh of `O=c1cc(N2CCOCC2)nc2n(Cc3cccc(Cl)c3Cl)ccn12` is strictly below 30%.
output: met
